# ASSAY_TARGET: ATP-dependent translocase ABCB1 (Homo sapiens)
# Sequence (P08183 whole entry): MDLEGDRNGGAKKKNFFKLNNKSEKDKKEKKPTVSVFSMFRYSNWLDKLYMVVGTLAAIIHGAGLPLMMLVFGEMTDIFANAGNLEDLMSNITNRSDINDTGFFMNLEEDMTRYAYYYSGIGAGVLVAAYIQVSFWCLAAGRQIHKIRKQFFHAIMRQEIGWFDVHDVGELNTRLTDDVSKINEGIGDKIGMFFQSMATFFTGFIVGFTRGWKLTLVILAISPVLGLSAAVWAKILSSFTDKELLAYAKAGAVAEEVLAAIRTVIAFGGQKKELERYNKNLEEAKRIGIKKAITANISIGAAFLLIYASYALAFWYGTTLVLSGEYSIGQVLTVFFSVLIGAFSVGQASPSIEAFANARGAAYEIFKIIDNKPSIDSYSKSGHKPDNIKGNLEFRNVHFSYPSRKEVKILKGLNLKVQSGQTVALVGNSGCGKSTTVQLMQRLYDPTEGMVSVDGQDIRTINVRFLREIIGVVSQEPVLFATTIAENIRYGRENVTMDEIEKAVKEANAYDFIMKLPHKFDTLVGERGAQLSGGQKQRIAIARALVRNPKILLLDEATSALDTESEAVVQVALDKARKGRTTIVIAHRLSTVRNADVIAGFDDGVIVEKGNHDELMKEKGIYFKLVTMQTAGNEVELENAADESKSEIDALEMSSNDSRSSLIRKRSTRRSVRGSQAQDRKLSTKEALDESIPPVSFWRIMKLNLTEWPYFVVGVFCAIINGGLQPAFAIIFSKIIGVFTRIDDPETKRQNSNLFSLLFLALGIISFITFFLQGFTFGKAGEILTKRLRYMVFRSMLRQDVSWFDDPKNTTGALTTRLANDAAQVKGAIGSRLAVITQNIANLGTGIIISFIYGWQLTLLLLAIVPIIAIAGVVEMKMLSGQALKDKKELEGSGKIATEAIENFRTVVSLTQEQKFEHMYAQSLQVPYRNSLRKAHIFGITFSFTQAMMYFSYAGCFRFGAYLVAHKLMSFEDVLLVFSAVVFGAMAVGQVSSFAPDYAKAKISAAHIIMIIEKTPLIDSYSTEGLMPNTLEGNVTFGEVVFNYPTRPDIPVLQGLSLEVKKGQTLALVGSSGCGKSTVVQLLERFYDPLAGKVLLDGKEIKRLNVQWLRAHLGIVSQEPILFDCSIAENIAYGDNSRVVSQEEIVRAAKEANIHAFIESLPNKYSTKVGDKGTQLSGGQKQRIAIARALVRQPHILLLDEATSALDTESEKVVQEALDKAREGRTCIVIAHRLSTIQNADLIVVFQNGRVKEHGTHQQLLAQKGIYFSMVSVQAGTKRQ
# MEASUREMENT_DESCRIPTION: Inhibition of human ABCB1 expressed in mouse L5178 cells assessed as 75% inhibition of cell proliferation at compound-doxorubicin ratio of 81.5:1 after 48 hrs by MTT assay
# Type: cell-based
# MEASUREMENT_CONDITIONS: l5178, 48 h
Class yes: fractional inhibitory concentration index (FICI) at least 0.6. Class no: fractional inhibitory concentration index (FICI) below 0.6.

{"MOLECULE_SMILES": "CC(=O)[C@H]1CC[C@@]2(O)C3=CC(=O)[C@@H]4C[C@@H](O)[C@@H](O)C[C@]4(C)C3=CC[C@]12C", "CLASS_ASSIGNMENT": "yes"}
{"MOLECULE_SMILES": "CC(C)(O)CC[C@@H](O)[C@](C)(O)[C@H]1CC[C@@]2(O)C3=CC(=O)[C@H]4C[C@@H](O)[C@@H](O)C[C@]4(C)[C@H]3CC[C@]12C", "CLASS_ASSIGNMENT": "no"}
{"MOLECULE_SMILES": "CC1(C)CC[C@H]([C@](C)(O)[C@H]2CC[C@@]3(O)C4=CC(=O)[C@@H]5C[C@@H](O)[C@@H](O)C[C@]5(C)[C@H]4CC[C@]23C)O1", "CLASS_ASSIGNMENT": "no"}
{"MOLECULE_SMILES": "CC(C)(O)CC[C@@H](O)[C@](C)(O)[C@H]1CC[C@]2(O)C3=CC(=O)[C@@H]4C[C@@H](O)[C@@H](O)C[C@]4(C)[C@H]3CC[C@]12C", "CLASS_ASSIGNMENT": "yes"}
{"MOLECULE_SMILES": "CCC1=C(C)C(=O)O[C@@H]([C@](C)(O)[C@H]2CC[C@@]3(O)C4=CC(=O)[C@@H]5C[C@@H](O)[C@@H](O)C[C@]5(C)[C@H]4CC(=O)[C@]23C)C1", "CLASS_ASSIGNMENT": "yes"}
{"MOLECULE_SMILES": "CC(C)(O)CC[C@H]1OC(C)(C)O[C@]1(C)[C@H]1CC[C@@]2(O)C3=CC(=O)[C@H]4C[C@@H](O)CC[C@]4(C)[C@H]3CC[C@]12C", "CLASS_ASSIGNMENT": "yes"}
{"MOLECULE_SMILES": "CC(=O)O[C@H](CCC(C)(C)O)[C@](C)(O)[C@H]1CC[C@@]2(O)C3=CC(=O)[C@@H]4C[C@@H](O)[C@@H](O)C[C@]4(C)[C@H]3CC[C@]12C", "CLASS_ASSIGNMENT": "yes"}
{"MOLECULE_SMILES": "CC(C)(O)CC[C@@H](O)[C@](C)(O)[C@H]1CC[C@@]2(O)C3=CC(=O)[C@@H]4C[C@H](O)[C@@H](O)C[C@]4(C)[C@H]3CC[C@]12C", "CLASS_ASSIGNMENT": "no"}
{"MOLECULE_SMILES": "CC[C@H](C[C@H]1OC(C)(C)O[C@]1(C)[C@H]1CC[C@@]2(O)C3=CC(=O)[C@@H]4C[C@@H](O)[C@@H](O)C[C@]4(C)[C@H]3CC[C@]12C)C(C)(C)O", "CLASS_ASSIGNMENT": "no"}
{"MOLECULE_SMILES": "CC(C)(O)CC[C@@H](O)[C@](C)(O)[C@H]1CC[C@@]2(O)C3=CC(=O)[C@@]4(O)C[C@@H](O)CC[C@]4(C)[C@H]3CC[C@]12C", "CLASS_ASSIGNMENT": "no"}
{"MOLECULE_SMILES": "CC(C)(O)CCC[C@](C)(O)[C@H]1CC[C@@]2(O)C3=CC(=O)[C@@H]4C[C@@H](O)[C@@H](O)C[C@]4(C)[C@H]3CC[C@]12C", "CLASS_ASSIGNMENT": "yes"}
